Target: SCRIB_3, Q14160
Sequence (Q14160 999-1103): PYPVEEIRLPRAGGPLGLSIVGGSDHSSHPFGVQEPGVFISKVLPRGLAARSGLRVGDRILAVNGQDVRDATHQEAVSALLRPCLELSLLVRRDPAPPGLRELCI
Assay: holdup assay
Set-up: key: below the threshold = too weak to quantify, mostly under pKd 3.1 to 4
Settings: plain residues with an end cap or a label only (N-terminal biotin on a linker: ado-ado)
measurement kind: pKd

A selection of reference data follows.
- binder: "PTPDLPQTRV [KLHDC7A, Q5VTJ3]"
  pKd: "below the threshold"
- binder: "TISFTQTSQF [SLC1A1, P43005]"
  pKd: 3.72
- binder: "NNNVVKVDSV [MTNR1A, P48039]"
  pKd: "below the threshold"
- binder: "NTANRRTTPV [CACNG2, Q9Y698]"
  pKd: 3.92

pKd measured on ARSAAASNYV [CLDN4, O14493] = below the threshold

pKd measured on LPAVCYDIDI [PTTG2, Q9NZH5] = 4.29

pKd measured on RDPPAEWTRV [PTPN18, Q99952] = below the threshold

pKd measured on KPGKGSETVV [FZD4, Q9ULV1] = 3.94
